- system: CSP1 (Chilo suppressalis, UniProt V9PY22)
- Sequence (V9PY22 18-122): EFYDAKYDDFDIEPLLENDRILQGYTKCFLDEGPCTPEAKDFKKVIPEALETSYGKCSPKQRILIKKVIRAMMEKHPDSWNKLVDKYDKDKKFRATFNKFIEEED
- Format: binding
- applied-conditions: read-out: CSP1 Ki; competitive binding with 1-NPN
property-label: Ki

[
  {
    "smiles-data": "CCCCCC/C=C\\CCCCCCCC=O",
    "assay-result": "13.5 µM"
  },
  {
    "smiles-data": "CCCC/C=C\\CCCCCCCCCC=O",
    "assay-result": "16.2 µM"
  },
  {
    "smiles-data": "CCCCCCCCCCCC=O",
    "assay-result": "9.16 µM"
  },
  {
    "smiles-data": "CCC/C=C\\C=O",
    "assay-result": "12.2 µM"
  }
]
